target: MMP-2 (Homo sapiens, UniProt P08253); construct: purchased Anaspec, Inc. 71151/71155; test: MMP-2 assay (Anaspec kit); format: biochemical; settings: read-out: MMP2 IC50
Sequence (P08253 110-660): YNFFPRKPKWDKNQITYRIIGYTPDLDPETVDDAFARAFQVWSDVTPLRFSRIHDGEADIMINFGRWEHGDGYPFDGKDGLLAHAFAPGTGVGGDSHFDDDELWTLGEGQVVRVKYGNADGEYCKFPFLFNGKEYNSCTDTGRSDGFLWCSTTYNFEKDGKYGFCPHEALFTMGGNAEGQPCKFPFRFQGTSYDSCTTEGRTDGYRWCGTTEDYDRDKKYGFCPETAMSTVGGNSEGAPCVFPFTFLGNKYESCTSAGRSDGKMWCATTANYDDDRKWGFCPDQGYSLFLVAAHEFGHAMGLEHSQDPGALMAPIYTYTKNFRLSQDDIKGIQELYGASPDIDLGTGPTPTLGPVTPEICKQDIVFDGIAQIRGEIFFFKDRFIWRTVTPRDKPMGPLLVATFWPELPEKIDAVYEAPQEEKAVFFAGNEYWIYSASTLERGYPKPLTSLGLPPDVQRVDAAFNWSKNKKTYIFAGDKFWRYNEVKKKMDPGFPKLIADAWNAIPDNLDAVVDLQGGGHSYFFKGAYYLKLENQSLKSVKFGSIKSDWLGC
Metric name: IC50 (µM)
Please give a number only; it is taken to be in µM.

-- ask With MMP-2 (Homo sapiens, UniProt P08253) as the test system, provide measured IC50 for this compound: `O=C(O)CN1C(=O)/C(=C/c2sc(Br)c3c2OCCO3)SC1=S`
-- reply 50.6

-- ask With MMP-2 (Homo sapiens, UniProt P08253) as the test system, provide measured IC50 for this compound: `O=C(O)CN1C(=O)/C(=C/c2ccc(N3CCOCC3)s2)SC1=S`
-- reply 47.1

-- ask With MMP-2 (Homo sapiens, UniProt P08253) as the test system, provide measured IC50 for this compound: `Cc1ccc2cc(/C=C3\SC(=S)N(CC(=O)O)C3=O)ccc2n1`
-- reply 18

-- ask With MMP-2 (Homo sapiens, UniProt P08253) as the test system, provide measured IC50 for this compound: `O=C(O)CN1C(=O)/C(=C/c2csc3ccc(Br)cc23)SC1=S`
-- reply 46.9

-- ask With MMP-2 (Homo sapiens, UniProt P08253) as the test system, provide measured IC50 for this compound: `O=C(O)CN1C(=O)/C(=C/c2cc(-c3ccco3)on2)SC1=S`
-- reply 39.4

----------
biological target: UniProtKB P11712
Sequence (P11712 whole entry): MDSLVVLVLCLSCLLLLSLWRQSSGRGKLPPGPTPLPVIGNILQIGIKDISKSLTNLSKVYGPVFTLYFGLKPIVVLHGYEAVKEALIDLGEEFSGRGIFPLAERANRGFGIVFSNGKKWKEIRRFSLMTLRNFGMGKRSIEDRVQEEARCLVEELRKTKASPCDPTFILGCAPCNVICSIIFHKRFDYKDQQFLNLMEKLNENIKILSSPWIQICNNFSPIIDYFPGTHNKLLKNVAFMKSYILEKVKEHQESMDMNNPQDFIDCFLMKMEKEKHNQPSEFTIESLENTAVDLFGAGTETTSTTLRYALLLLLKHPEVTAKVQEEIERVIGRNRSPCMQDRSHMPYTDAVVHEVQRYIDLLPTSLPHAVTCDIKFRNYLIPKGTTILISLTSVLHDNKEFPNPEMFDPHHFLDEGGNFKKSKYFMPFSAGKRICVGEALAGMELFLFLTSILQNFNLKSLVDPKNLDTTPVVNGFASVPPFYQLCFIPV
Metric name: IC50

-- ask Give the reported value of IC50 for this record: `COc1ccc(-c2ccc(/C=C3\SC(=S)N(CC(=O)O)C3=O)o2)cc1Cl`
-- reply 28.3 µM

-- ask Give the reported value of IC50 for this record: `O=C(O)CN1C(=O)/C(=C/c2ccc(-c3cccs3)s2)SC1=S`
-- reply > 100 µM

-- ask Give the reported value of IC50 for this record: `O=C(O)CN1C(=O)/C(=C/c2ccc(-c3ccc(Cl)c(Cl)c3)o2)SC1=S`
-- reply > 50 µM

-- ask Give the reported value of IC50 for this record: `O=C(O)CN1C(=O)/C(=C/c2ccc(-c3cc(C(F)(F)F)ccc3Cl)o2)SC1=S`
-- reply > 100 µM

----------
biological target: MMP-9 (Homo sapiens, UniProt P14780); construct: purchased Anaspec, Inc. 71151/71155; assay: MMP-9 assay (Anaspec kit); assay type: biochemical
Sequence (P14780 107-707 limits assumed): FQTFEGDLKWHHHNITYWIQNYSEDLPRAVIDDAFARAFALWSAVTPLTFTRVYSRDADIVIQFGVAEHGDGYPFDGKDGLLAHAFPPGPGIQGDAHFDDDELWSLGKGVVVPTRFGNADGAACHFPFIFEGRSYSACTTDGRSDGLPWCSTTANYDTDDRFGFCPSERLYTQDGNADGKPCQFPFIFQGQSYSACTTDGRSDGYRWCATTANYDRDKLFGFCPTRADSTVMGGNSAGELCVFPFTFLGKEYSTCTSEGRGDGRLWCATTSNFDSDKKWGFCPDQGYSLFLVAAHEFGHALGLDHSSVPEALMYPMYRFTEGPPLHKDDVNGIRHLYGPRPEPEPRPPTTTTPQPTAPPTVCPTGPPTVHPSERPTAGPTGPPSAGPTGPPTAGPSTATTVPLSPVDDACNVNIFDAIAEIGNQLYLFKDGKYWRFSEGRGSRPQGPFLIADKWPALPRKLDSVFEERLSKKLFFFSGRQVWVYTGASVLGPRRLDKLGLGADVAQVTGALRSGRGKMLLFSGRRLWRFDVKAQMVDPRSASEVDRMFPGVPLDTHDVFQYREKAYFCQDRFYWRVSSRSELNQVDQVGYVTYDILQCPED
Metric name: IC50

-- ask With MMP-9 (Homo sapiens, UniProt P14780) as the test system, provide measured IC50 for this compound: Cc1ccc(-c2cc(C=C3SC(=S)N(CC(=O)O)C3=O)no2)cc1 [Compound 22]
-- reply > 100 µM

-- ask With MMP-9 (Homo sapiens, UniProt P14780) as the test system, provide measured IC50 for this compound: COc1ccc(-c2cc(C=C3SC(=S)N(CC(=O)O)C3=O)no2)cc1 [Compound 23]
-- reply > 100 µM

-- ask With MMP-9 (Homo sapiens, UniProt P14780) as the test system, provide measured IC50 for this compound: O=C(O)CN1C(=O)/C(=C2/C(=O)N(CC(=O)Nc3cccc(Cl)c3)c3ccccc32)SC1=S [Compound 62]
-- reply > 25 µM

-- ask With MMP-9 (Homo sapiens, UniProt P14780) as the test system, provide measured IC50 for this compound: O=C(O)CN1C(=O)C(=Cc2cc(-c3ccc(Br)cc3)on2)SC1=S [Compound 26]
-- reply 27.4 µM

-- ask With MMP-9 (Homo sapiens, UniProt P14780) as the test system, provide measured IC50 for this compound: O=C(O)CN1C(=O)C(=Cc2cc(-c3ccccc3)on2)SC1=S [Compound 21]
-- reply 50 µM

-- ask With MMP-9 (Homo sapiens, UniProt P14780) as the test system, provide measured IC50 for this compound: O=C(O)CN1C(=O)C(=Cc2cc(-c3ccc(Cl)cc3)on2)SC1=S [Compound 24]
-- reply > 100 µM

-- ask With MMP-9 (Homo sapiens, UniProt P14780) as the test system, provide measured IC50 for this compound: O=C(O)CN1C(=O)C(=Cc2cc(-c3ccc(F)cc3)on2)SC1=S [Compound 25]
-- reply > 100 µM
